tested on: Shigella; experiment: Antibacterial activity tested against Shigella enteritidis; assay type: functional
QUANTITY_KIND: MIC (mg/L)
Answer with a number only, understood to be in mg/L.

Past entries and their recorded results:
Cc1c(N2CCC(C)CC2)c([N+](=O)[O-])cc2c(=O)c(C(=O)O)cn(C3CC3)c12: 64
Cc1c(N2CCC(O)CC2)c(N)cc2c(=O)c(C(=O)O)cn(C3CC3)c12: 0.25

For Shigella, give the measured MIC of the entry Cc1c(N2CCNC(C)C2)c(N)cc2c(=O)c(C(=O)O)cn(C3CC3)c12 (centres undefined) 0.06

---

Below, each of the molecules is paired with its reported MIC value.
tested on: Staphylococcus aureus; assay: Antibacterial activity against Staphylococcus aureus ATCC 6538; type: functional
Answer with a number only, understood to be in µg/mL.

Give a short answer stating reported MIC for Cc1c(N2CCN(C)CC2)c(N)cc2c(=O)c(C(=O)O)cn(C3CC3)c12 . 0.5

Reference source for all entries: ChEMBL document CHEMBL1129660
